Measured IC50, listed per entry.
Target: thrombin (Bos taurus, UniProt P00735)
Construct: purchased Lubelska Wytwórnia Szczepionek (Lublin, Poland)
Assay: Amidolytic activity of thrombin (chromogenic substrate H-D-Phe-Pip-Arg-pNA)
Format: biochemical
Conditions: amidolytic activity; Tris pH 8.4, 37 °C; IC50 by extrapolation using a linear plot; error 5%; read-out: IC50 Thrombin
parameter-measured: IC50 (mM)

| compound | parameter-measured | number |
| --- | --- | --- |
| C[C@@H](O)[C@H](NC(=O)[C@H](CCCNC(=N)N)NC(=O)CCCCC1CCSS1)C(=O)N[C@H](C(=O)N[C@@H](CCCCN)C(=O)N[C@@H](CO)C(N)=O)[C@@H](C)O (mixture of isomers) [Peptide 31, Lip-Arg-Thr-Thr-Lys-Ser- NH2] | IC50 | 5.59 |
| C[C@@H](O)[C@H](NC(=O)[C@H](CCCCN)NC(=O)CCCCC1CCSS1)C(=O)N[C@H](C(=O)N[C@@H](CCCCN)C(=O)N[C@@H](CO)C(N)=O)[C@@H](C)O (mixture of isomers) [Peptide 7, Lip-Lys-Thr-Thr-Lys-Ser-NH2] | IC50 | 11.7 |
